System: clinical isolates of S. mutans
Type: cell-based, Streptococcus mutans
Test settings: clinical isolates of
Where no end group is shown, it is not given here.
MIC S. mutans vs 30 µg/mL: less than gives rule met; not less than gives rule not met.

- Substance: "KFVKLILAY-NH2 [Peptide S6L1-5, KFVKLI LAY*]"
  Assigned category: "rule not met"
- Substance: "RFRHFQERY-NH2 [Peptide S6L1-8, RFRHFQERY*]"
  Assigned category: "rule not met"
- Substance: "LRLFLRF [Peptide S3L8-43, LRLFLRF]"
  Assigned category: "rule not met"
- Substance: "VGKCVKLLY-NH2 [Peptide S6L1-4, VGKCVKLLY*]"
  Assigned category: "rule not met"
- Substance: "LKAKIKFKVKLKIKF [Peptide S3L8-11, LKAKIKFKVKLKIKF]"
  Assigned category: "rule met"

Query string: Identify whether the substance LRHRLRHRLIF [Peptide S3L8-31, LRHRLRHRLIF] records MIC S. mutans below 30 µg/mL.
Result string: rule not met

Query string: Identify whether the substance WIWKHKFLHRHFLF [Peptide S3L8-12, WIWKHKFLHRHFLF] records MIC S. mutans below 30 µg/mL.
Result string: rule not met

Query string: Identify whether the substance WRWRARWRWRLRWRF [Peptide S3L8-3, WRWRARWRWRLRWRF] records MIC S. mutans below 30 µg/mL.
Result string: rule met

----------
Here, each record is paired with measured MIC V. atypica PK1910 data.
Test system: V. atypica PK1910
Assay type: cell-based, Veillonella atypica
Where no end group is shown, it is not given here.
Respond numerically; units are µg/mL and should not be typed.

Query string: API: value(readout= MIC V. atypica PK1910, system= V. atypica PK1910, query= FKKFWKWFRRFGGGRWRWRWF-NH2 [FBRW-14, FKKFWKWFRRF-GGG-RWRWRWF*] )
Result string: 8

Query string: API: value(readout= MIC V. atypica PK1910, system= V. atypica PK1910, query= RWRWRWFGGGFKKFWKWFRRF-NH2 [FBRW-22, RWRWRWF-GGG-FKKFWKWFRRF*] )
Result string: 8

Query string: API: value(readout= MIC V. atypica PK1910, system= V. atypica PK1910, query= RWRRLLKKLHHLLHGGGFKKFWKWFRRF-NH2 [FBα-20, RWRRLLKKLHHLLH-GGG-FKKFWKWFRRF*] )
Result string: 8

----------
Test system: L. casei ATCC 4646
Type: cell-based, Lactobacillus casei
Where no end group is shown, it is not given here.
Metric name: MIC L. casei ATCC 4646 (µg/mL)
Respond numerically; units are µg/mL and should not be typed.

Example substances with recorded MIC L. casei ATCC 4646:
- Substance: "RWRWRWF-NH2 [Peptide 2C-4, RWRWRWF*]"
  U: "µg/mL"
  MIC L. casei ATCC 4646: 32
- Substance: "RWRWRWFGGGLKRFLKWFKRF-NH2 [FBRW-24, RWRWRWF-GGG-LKRFLKWFKRF*]"
  U: "µg/mL"
  MIC L. casei ATCC 4646: 8
- Substance: "RWRRLLKKLHHLLH-NH2 [α-11, RWRRLLKKLHHLLH*]"
  U: "µg/mL"
  MIC L. casei ATCC 4646: 16
- Substance: "RWRWRWFGGGFKKFWKWFRRF-NH2 [FBRW-22, RWRWRWF-GGG-FKKFWKWFRRF*]"
  U: "µg/mL"
  MIC L. casei ATCC 4646: 8

Query string: API: value(readout= MIC L. casei ATCC 4646, system= L. casei ATCC 4646, query= IKQLLHFFQRFGGGRWRWRWF-NH2 [FBRW-15, IKQLLHFFQRF-GGG-RWRWRWF*] )
Result string: 16

Query string: API: value(readout= MIC L. casei ATCC 4646, system= L. casei ATCC 4646, query= RWRRLLKKLHHLLHGGGFKKFWKWFRRF-NH2 [FBα-20, RWRRLLKKLHHLLH-GGG-FKKFWKWFRRF*] )
Result string: 8

Query string: API: value(readout= MIC L. casei ATCC 4646, system= L. casei ATCC 4646, query= RRRWWWF-NH2 [Peptide 2C-3, RRRWWWF*] )
Result string: 16

Query string: API: value(readout= MIC L. casei ATCC 4646, system= L. casei ATCC 4646, query= IKQLLHFFQRF-NH2 [Peptide B-38, IKQLLHFFQRF*] )
Result string: 32

Query string: API: value(readout= MIC L. casei ATCC 4646, system= L. casei ATCC 4646, query= FKKFWKWFRRFGGGRWRWRWF-NH2 [FBRW-14, FKKFWKWFRRF-GGG-RWRWRWF*] )
Result string: 8
